Data origin, for the record: patent US20210024639A1

- Assayed Target: native human MET on living human cells (human, UniProt P08581 25-1390)
- Sequence (P08581 25-1390): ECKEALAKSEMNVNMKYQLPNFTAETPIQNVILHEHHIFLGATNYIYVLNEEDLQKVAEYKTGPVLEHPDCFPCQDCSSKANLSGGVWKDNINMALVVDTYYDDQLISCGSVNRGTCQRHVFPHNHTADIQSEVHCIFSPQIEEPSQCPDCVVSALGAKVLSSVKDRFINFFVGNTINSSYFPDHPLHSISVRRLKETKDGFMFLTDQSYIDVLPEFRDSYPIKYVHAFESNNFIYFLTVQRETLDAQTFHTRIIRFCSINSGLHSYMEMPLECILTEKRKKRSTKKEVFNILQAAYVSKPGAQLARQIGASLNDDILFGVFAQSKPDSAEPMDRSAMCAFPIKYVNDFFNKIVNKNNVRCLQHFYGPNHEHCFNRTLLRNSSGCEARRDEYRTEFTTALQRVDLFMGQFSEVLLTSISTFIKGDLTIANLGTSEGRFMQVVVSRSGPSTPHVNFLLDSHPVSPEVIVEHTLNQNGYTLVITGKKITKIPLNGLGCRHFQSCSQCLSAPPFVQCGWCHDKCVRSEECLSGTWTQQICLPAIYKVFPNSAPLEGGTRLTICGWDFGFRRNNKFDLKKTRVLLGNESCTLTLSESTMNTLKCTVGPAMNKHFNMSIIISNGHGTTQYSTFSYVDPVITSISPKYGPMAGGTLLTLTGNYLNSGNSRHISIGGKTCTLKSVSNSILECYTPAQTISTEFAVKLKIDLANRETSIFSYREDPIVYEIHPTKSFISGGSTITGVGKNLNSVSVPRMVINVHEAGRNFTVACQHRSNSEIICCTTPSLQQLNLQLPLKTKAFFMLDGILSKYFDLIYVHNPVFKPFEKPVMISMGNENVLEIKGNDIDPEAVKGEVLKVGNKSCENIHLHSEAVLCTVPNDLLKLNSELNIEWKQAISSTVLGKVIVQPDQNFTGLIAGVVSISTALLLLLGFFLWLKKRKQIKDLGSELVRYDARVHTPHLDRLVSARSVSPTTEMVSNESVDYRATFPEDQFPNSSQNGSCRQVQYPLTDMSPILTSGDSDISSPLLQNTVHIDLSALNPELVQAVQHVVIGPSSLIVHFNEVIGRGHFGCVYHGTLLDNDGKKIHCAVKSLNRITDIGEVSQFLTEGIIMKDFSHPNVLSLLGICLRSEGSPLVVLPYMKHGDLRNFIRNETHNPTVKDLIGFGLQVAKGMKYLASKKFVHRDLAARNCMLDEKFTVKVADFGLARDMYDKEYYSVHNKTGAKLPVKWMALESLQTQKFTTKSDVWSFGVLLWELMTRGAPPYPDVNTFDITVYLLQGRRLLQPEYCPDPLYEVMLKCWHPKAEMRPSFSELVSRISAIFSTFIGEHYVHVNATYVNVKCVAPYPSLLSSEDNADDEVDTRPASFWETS
- Run Description: cell-based or functional assay
# cell scattering score, HPAF-II, 9.000 nM per record follows
The figure you give is taken to be in score 0-4; do not add the unit.

1) chimeric llama-human IgG1 mAb 71G2 (antibody, V domains shown) VH: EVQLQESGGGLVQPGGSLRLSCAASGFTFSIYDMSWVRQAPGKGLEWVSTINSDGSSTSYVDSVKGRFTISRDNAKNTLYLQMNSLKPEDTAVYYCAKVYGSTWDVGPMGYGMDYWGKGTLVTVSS VL: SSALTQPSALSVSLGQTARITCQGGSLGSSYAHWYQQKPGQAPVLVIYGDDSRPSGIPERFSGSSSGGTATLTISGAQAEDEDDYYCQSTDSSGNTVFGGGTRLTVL
4

Consider now this further binder.
Query :: Quick one: give measured cell scattering score, HPAF-II, 9.000 nM for chimeric llama-human IgG1 mAb 74C8 (antibody, V domains shown) VH: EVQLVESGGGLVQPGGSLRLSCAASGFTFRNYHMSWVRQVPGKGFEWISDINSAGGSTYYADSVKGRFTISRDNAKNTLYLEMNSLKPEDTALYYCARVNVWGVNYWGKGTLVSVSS VL: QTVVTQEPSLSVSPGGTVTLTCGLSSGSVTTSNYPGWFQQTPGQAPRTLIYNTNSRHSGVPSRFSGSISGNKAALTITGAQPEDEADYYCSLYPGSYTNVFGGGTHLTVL
Result :: 4
